Taken from patent US20150011466A1.

target: APJ receptor (Homo sapiens); construct: expressed in transfected cells; host or cells: Human TRex cells (doxycycline-inducible); assay: HTRF cAMP assay, inhibition of NKH477 stimulated cAMP in Human TRex cells expressing APJ upon doxycycline induction (APJ-hTREX); type: cell-based; details: read-out: % IA (@ 300 nM)
Sequence (P35414 whole entry): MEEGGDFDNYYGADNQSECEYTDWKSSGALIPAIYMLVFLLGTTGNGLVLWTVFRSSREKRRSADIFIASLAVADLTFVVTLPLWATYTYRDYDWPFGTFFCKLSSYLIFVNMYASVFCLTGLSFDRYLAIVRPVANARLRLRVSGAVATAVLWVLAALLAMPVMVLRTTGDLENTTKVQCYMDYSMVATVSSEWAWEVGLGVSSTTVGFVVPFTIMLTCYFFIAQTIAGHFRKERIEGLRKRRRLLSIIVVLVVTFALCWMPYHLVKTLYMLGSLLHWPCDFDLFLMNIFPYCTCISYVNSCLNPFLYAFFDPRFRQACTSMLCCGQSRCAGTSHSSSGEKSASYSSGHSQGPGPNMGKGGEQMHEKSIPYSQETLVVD
Where a SMILES comes first, the peptide text is derived from it. [ ]: non-standard residue; d: D form. The star is where a group is joined. Palmitoyl = CCCCCCCCCCCCCCCC(=O)*

- molecule: "CCCCCCCCCCCCCCCC(=O)N[C@H](C(=O)N1CCC[C@H]1C(=O)N[C@@H](Cc1ccccc1)C(=O)N[C@@H](CCCNC(=N)N)C(=O)N[C@@H](CO)C(=O)N[C@@H](CO)C(=O)N[C@@H](CCC(=O)O)C(=O)N[C@H](CCCCN)C(=O)N[C@@H](CCCNC(=N)N)C(=O)N[C@@H](CCCNC(=N)N)C(=O)N[C@@H](CO)C(=O)N[C@@H](C)C(=O)N[C@@H](CC(=O)O)C(=O)N[C@H](C(=O)N[C@@H](Cc1ccccc1)C(=O)N[C@H](C(N)=O)[C@@H](C)CC)[C@@H](C)CC)[C@@H](C)O [Compound 43] (Palmitoyl-TPFRSSE[dK]RRSADIFI-NH2)"
  percent intrinsic activity at 0.3 µM: "39%"

----------
experiment: Histimine (% vs. 48/40)
Where a SMILES comes first, the peptide text is derived from it. [ ]: non-standard residue; d: D form. The star is where a group is joined. Palmitoyl = CCCCCCCCCCCCCCCC(=O)*
Label yes when Histimine (% vs. 48/40) is strictly below 50%; at or above that, label no.

- molecule: "CCCCCCCCCCCCCCCC(=O)N[C@H](C(=O)N[C@H](C(=O)N[C@@H](Cc1ccccc1)C(=O)N[C@@H](CCCNC(=N)N)C(=O)N[C@@H](CO)C(=O)N[C@@H](CO)C(=O)N[C@@H](CCC(=O)O)C(=O)N[C@H](CCCCN)C(=O)N[C@@H](CCCNC(=N)N)C(=O)N1CCC[C@H]1C(=O)N[C@@H](CO)C(=O)N[C@@H](C)C(=O)N[C@@H](CC(=O)O)C(=O)N[C@H](C(=O)N[C@@H](Cc1ccccc1)C(=O)N[C@H](C(N)=O)[C@@H](C)CC)[C@@H](C)CC)C(C)C)[C@@H](C)O [Compound 50] (Palmitoyl-TVFRSSE[dK]RPSADIFI-NH2)"
  discrete label: "yes"
- molecule: "CCCCCCCCCCCCCCCC(=O)N[C@H](C(=O)N[C@H](C(=O)N[C@@H](Cc1ccccc1)C(=O)N[C@@H](CCCNC(=N)N)C(=O)N[C@@H](CO)C(=O)N[C@@H](CO)C(=O)N[C@@H](CCC(=O)O)C(=O)N[C@H](CCCCN)C(=O)N[C@@H](CCCNC(=N)N)C(=O)N[C@@H](CCCNC(=N)N)C(=O)N[C@@H](CO)C(=O)N[C@@H](C)C(=O)NCC(=O)N[C@H](C(=O)N[C@@H](Cc1ccccc1)C(=O)N[C@H](C(N)=O)[C@@H](C)CC)[C@@H](C)CC)C(C)C)[C@@H](C)O [Compound 78] (Palmitoyl-TVFRSSE[dK]RRSAGIFI-NH2)"
  discrete label: "no"
- molecule: "CCCCCCCCCCCCCCCC(=O)N[C@H](C(=O)N[C@H](C(=O)N[C@@H](Cc1ccccc1)C(=O)N[C@@H](CCCNC(=N)N)C(=O)N[C@@H](CO)C(=O)N[C@@H](CO)C(=O)N[C@@H](CCC(=O)O)C(=O)N[C@H](CCCCN)C(=O)N[C@@H](CCCNC(=N)N)C(=O)N[C@@H](CCCNC(=N)N)C(=O)N[C@@H](CO)C(=O)N[C@@H](C)C(=O)N[C@@H](CC(=O)O)C(=O)N[C@H](C(=O)N[C@@H](Cc1ccccc1)C(=O)N[C@@H](CCC(N)=O)C(N)=O)[C@@H](C)CC)C(C)C)[C@@H](C)O [Compound 32] (Palmitoyl-TVFRSSE[dK]RRSADIFQ-NH2)"
  discrete label: "no"
- molecule: "CCCCCCCCCCCCCCCC(=O)NCC(=O)N[C@H](C(=O)N[C@@H](Cc1ccccc1)C(=O)N[C@@H](CCCNC(=N)N)C(=O)N[C@@H](CO)C(=O)N[C@@H](CO)C(=O)N[C@@H](CCC(=O)O)C(=O)N[C@H](CCCCN)C(=O)N[C@@H](CCCNC(=N)N)C(=O)N[C@@H](CCCNC(=N)N)C(=O)N[C@@H](CO)C(=O)N[C@@H](C)C(=O)N[C@@H](CC(=O)O)C(=O)N[C@H](C(=O)N[C@@H](Cc1ccccc1)C(=O)N[C@H](C(N)=O)[C@@H](C)CC)[C@@H](C)CC)C(C)C [Compound 68] (Palmitoyl-GVFRSSE[dK]RRSADIFI-NH2)"
  discrete label: "yes"
- molecule: "CCCCCCCCCCCCCCCC(=O)N[C@H](C(=O)N[C@H](C(=O)N[C@@H](Cc1ccccc1)C(=O)N[C@@H](CCCNC(=N)N)C(=O)N[C@@H](CO)C(=O)N[C@@H](CO)C(=O)N[C@@H](CCC(=O)O)C(=O)N[C@H](CCCCN)C(=O)N[C@@H](CCCNC(=N)N)C(=O)N[C@@H](CCCNC(=N)N)C(=O)N[C@@H](CO)C(=O)N[C@@H](C)C(=O)N[C@@H](CC(=O)O)C(=O)N[C@H](C(=O)N[C@@H](Cc1ccccc1)C(=O)NCC(N)=O)[C@@H](C)CC)C(C)C)[C@@H](C)O [Compound 80] (Palmitoyl-TVFRSSE[dK]RRSADIFG-NH2)"
  discrete label: "no"
- molecule: "CCCCCCCCCCCCCCCC(=O)N[C@H](C(=O)N[C@H](C(=O)N[C@@H](Cc1ccccc1)C(=O)N[C@@H](CCCNC(=N)N)C(=O)N[C@@H](CO)C(=O)N[C@@H](CO)C(=O)N[C@@H](CCC(=O)O)C(=O)N[C@H](CCCCN)C(=O)N[C@@H](CCCNC(=N)N)C(=O)N[C@@H](CCCNC(=N)N)C(=O)NCC(=O)N[C@@H](C)C(=O)N[C@@H](CC(=O)O)C(=O)N[C@H](C(=O)N[C@@H](Cc1ccccc1)C(=O)N[C@H](C(N)=O)[C@@H](C)CC)[C@@H](C)CC)C(C)C)[C@@H](C)O [Compound 77] (Palmitoyl-TVFRSSE[dK]RRGADIFI-NH2)"
  discrete label: "no"
- molecule: "CCCCCCCCCCCCCCCC(=O)N[C@H](C(=O)N[C@H](C(=O)N[C@@H](Cc1ccccc1)C(=O)N[C@@H](CCCNC(=N)N)C(=O)N[C@@H](CO)C(=O)N[C@@H](CO)C(=O)N[C@@H](CCC(=O)O)C(=O)N[C@H](CCCCN)C(=O)N[C@@H](CCCNC(=N)N)C(=O)N[C@@H](CCCNC(=N)N)C(=O)N[C@@H](CO)C(=O)N[C@@H](C)C(=O)N[C@@H](CC(=O)O)C(=O)N[C@H](C(=O)NCC(=O)N[C@H](C(N)=O)[C@@H](C)CC)[C@@H](C)CC)C(C)C)[C@@H](C)O [Compound 79] (Palmitoyl-TVFRSSE[dK]RRSADIGI-NH2)"
  discrete label: "yes"
